// data source = ChEMBL document CHEMBL4304823

test system: L929; experiment: Cytotoxicity against mouse L929 cells assessed as reduction in cell viability measured after 48 hrs; type: cell-based; details: Mus musculus, L929, 48 h
Quick reference for IC50 among some compounds

Compound: CC[C@H](C)[C@@H]1NC(=O)CN2C(=O)c3ccccc3[C@]2(O)CN(Cc2ccccc2)C(=O)[C@@H]2CCCN2C(=O)[C@H](C(C)C)NC(=O)[C@@H]2CCCN2C(=O)[C@H](CC(C)C)NC1=O
IC50, mg/L: 86.2

Compound: CC(=O)O[C@H]1C(=O)[C@@]2(C)[C@H]([C@H](OC(=O)c3ccccc3)[C@]3(O)C[C@H](OC(=O)[C@H](O)[C@@H](NC(=O)c4ccccc4)c4ccccc4)C(C)=C1C3(C)C)[C@]1(OC(C)=O)CO[C@@H]1C[C@@H]2O [PACLITAXEL]
IC50, mg/L: 33

Compound: CC[C@H](C)[C@@H]1NC(=O)CN2C(=O)c3ccccc3[C@@]2(O)CN(Cc2ccccc2)C(=O)[C@@H]2CCCN2C(=O)[C@H](C(C)C)NC(=O)[C@@H]2CCCN2C(=O)[C@H](CC(C)C)NC1=O
IC50, mg/L: 50.5

Compound: CCNC(=O)CC[C@@H]1NC(=O)CN2C(=O)c3ccccc3[C@@]2(O)CN(Cc2ccccc2)C(=O)[C@H]2CCCN2C(=O)[C@H](C(C)C)NC(=O)[C@H]2CCCN2C(=O)[C@H](CC(C)C)NC(=O)[C@H]([C@@H](C)CC)NC1=O
IC50, mg/L: 61.1
